system.name: T1, human CD112R on Jurkat CD112R effector cells (human, UniProt Q6DKI7 1-326)
T1 sequence (looked up): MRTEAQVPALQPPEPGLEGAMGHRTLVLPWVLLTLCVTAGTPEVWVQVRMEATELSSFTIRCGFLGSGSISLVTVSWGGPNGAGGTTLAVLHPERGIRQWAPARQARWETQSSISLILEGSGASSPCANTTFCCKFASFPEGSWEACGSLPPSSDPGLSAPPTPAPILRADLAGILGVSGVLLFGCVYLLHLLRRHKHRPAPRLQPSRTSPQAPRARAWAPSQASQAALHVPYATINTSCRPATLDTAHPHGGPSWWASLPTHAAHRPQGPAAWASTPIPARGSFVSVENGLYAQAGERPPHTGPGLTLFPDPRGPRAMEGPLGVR
measurement.notes: cell-based or functional assay
quantity: Relative activity (%), EC50 COM701/EC50 antibody
Use % as the unit, but write only the number.

# example entries with known answers
QUERY: Recall and state the measured Relative activity (%), EC50 COM701/EC50 antibody for Hu46 (antibody, IgG4, V domains shown) VH: EVQLVESGGGLVKPGGSLRLSCAASGFTFSSYHMSWVRQAPGKGLELVSAINSNVISTYYLDTVKGRFTISRDNAKNSLYLQMNSLRAEDTAVYYCARHEDYYGFAMDYWGQGTLVTVSS VL: DIVMTQSPDSLAVSLGERATINCKASQSVSNDVAWYQQKPGQPPKLLIYYVSHRFTGVPDRFSGSGSGTDFTLTISSLQAEDVAVYFCHQAYRSPWTFGQGTKLEIK .
RESULT: 249

QUERY: Please give the documented Relative activity (%), EC50 COM701/EC50 antibody of Hu45 (antibody, IgG4, V domains shown) VH: EVQLVESGGGLVKPGGSLRLSCAASGFTFSSYHMSWVRQAPGKGLELVSAINSNVISTYYLDTVKGRFTISRDNAKNSLYLQMNSLRAEDTAVYYCARHEDYYGFAMDYWGQGTLVTVSS VL: EIVMTQSPPTLSLSPGERVTLSCKASQSVSNDVAWYQEKPGQAPRLLIYYVSHRFTGIPARFSGSGSGTDFTLTISSLQPEDFAVYYCHQAYRSPWTFGQGTKLEIK
RESULT: 261

# evaluate next
QUERY: // Input: Hu55 (antibody, IgG4, V domains shown, humanized IgG4) VH: EVQLVESGGGLVQPGGSLRLSCAASGFTFSSYHMSWIRQAPGKGLELVAAINSNGINTYYLDTVKGRFTISRDNAKNSLYLQMNSLRAEDTAVYYCARHEDYYGFAMDYWGQGTLVTVSS VL: DIVMTQSPDSLAVSLGERATINCKASQSVTNDVAWYQQKPGQPPKLLIYYVSNHYTGVPDRFSGSGSGTDFTLTISSLQAEDVAVYFCQQAYRSPWTFGQGTKLEIK . Output its Relative activity (%), EC50 COM701/EC50 antibody only.
RESULT: 302
